Listed below: Plasmodium falciparum (W2 clone) IC50 values for each entry.
- System: Plasmodium falciparum (W2 clone), chloroquine-resistant
- Experiment description: Plasmodium growth inhibition, parasite lactate dehydrogenase assay (Malstat)
- Format: cell-based
- Assay conditions: chloroquine-resistant
Give just the number in µg/mL; leave the unit off.

Examples from the recorded data:
For record C[C@@H]1CC[C@H]2[C@@H](C)C(=O)O[C@@H]3O[C@@]4(C)CC[C@@H]1[C@]32OO4 [Artemisinin, artemisinin, reference compound] the listed Plasmodium falciparum (W2 clone) IC50 is 0.009

For record CCC1OC(=O)C(C)C(=O)C(C)C(OC2OC(C)CC(N(C)Cc3ccc(-c4cn(CCCCCCCCC(=O)NO)nn4)cc3)C2O)C(C)(OC)CC(C)C2=NCCN3C(=O)OC1(C)C3C2C (stereo not shown) [Compound 56d] the listed Plasmodium falciparum (W2 clone) IC50 is 1.30

For record CCC1OC(=O)C(C)C(=O)C(C)C(OC2OC(C)CC(N(C)Cc3ccc(-c4cn(CCCCCC(=O)NO)nn4)cc3)C2O)C(C)(OC)CC(C)C2=NCCN3C(=O)OC1(C)C3C2C (stereo not shown) [Compound 56a] the listed Plasmodium falciparum (W2 clone) IC50 is 1.80

For record CCC1OC(=O)C(C)C(=O)C(C)C(OC2OC(C)CC(N(C)Cc3ccc(-c4cn(CCCCCCCCCC(=O)NO)nn4)cc3)C2O)C(C)(OC)CC(C)C2=NCCN3C(=O)OC1(C)C3C2C (stereo not shown) [Compound 56e] the listed Plasmodium falciparum (W2 clone) IC50 is 0.84

For record CCC1OC(=O)C(C)C(=O)C(C)C(OC2OC(C)CC(N(C)Cc3ccc(-c4cn(CCCCCCC(=O)NO)nn4)cc3)C2O)C(C)(OC)CC(C)C2=NCCN3C(=O)OC1(C)C3C2C (stereo not shown) [Compound 56b] the listed Plasmodium falciparum (W2 clone) IC50 is 0.12

For record CCC1OC(=O)C(C)C(=O)C(C)C(OC2OC(C)CC(N(C)Cc3ccc(-c4cn(CCCCCCCC(=O)NO)nn4)cc3)C2O)C(C)(OC)CC(C)C2=NCCN3C(=O)OC1(C)C3C2C (stereo not shown) [Compound 56c] the listed Plasmodium falciparum (W2 clone) IC50 is 1.50

Now consider the entry below.
For record CCN(CC)CCCC(C)Nc1ccnc2cc(Cl)ccc12 (stereo not shown) [Chloroquine, chloroquine, reference compound] the listed Plasmodium falciparum (W2 clone) IC50 is 0.14

---

- System tested: UniProt:Q13547
- Sequence (Q13547 whole entry): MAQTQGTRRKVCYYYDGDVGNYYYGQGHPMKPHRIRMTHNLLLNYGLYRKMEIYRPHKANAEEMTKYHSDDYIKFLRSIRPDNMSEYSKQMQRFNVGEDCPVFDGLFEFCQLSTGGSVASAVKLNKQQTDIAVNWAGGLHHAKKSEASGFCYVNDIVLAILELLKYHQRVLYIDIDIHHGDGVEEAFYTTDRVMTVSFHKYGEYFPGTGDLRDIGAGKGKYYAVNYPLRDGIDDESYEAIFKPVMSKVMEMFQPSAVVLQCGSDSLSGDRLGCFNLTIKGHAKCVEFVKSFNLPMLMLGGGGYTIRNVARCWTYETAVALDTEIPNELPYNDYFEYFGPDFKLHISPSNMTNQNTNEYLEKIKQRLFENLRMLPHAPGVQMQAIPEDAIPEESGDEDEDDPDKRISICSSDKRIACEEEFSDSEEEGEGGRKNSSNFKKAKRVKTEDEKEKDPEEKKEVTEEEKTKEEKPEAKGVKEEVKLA
- Experiment description: SAMDI mass spectrometry HDAC inhibition assay
- Assay type: biochemical
- Assay conditions: at 10 μM, given if the IC50 was above 10 μM
Measured endpoint: inhibition at 10 µM (%)
Give just the number in %; leave the unit off.

Examples from the recorded data:
For record O=c1c(O)cccn1CCCn1cc(-c2ccccc2)nn1 [Compound 159b] the listed inhibition at 10 µM is 8

For record Cc1cccc(-c2cn(CCCCCn3cccc(O)c3=O)nn2)c1 [Compound 166b] the listed inhibition at 10 µM is 88

For record N#Cc1ccc(-c2cn(CCCCCn3cccc(O)c3=O)nn2)cc1C(F)(F)F [Compound 166g] the listed inhibition at 10 µM is 71

For record O=c1c(O)cccn1CCn1cc(-c2ccccc2)nn1 [Compound 159a] the listed inhibition at 10 µM is 12

Next:
For record Oc1cccn(CCn2cc(-c3ccccc3)nn2)c1=S the listed inhibition at 10 µM is 21

---

- System tested: HDAC8 (Homo sapiens (Human), UniProt Q9BY41)
- Sequence (Q9BY41 whole entry): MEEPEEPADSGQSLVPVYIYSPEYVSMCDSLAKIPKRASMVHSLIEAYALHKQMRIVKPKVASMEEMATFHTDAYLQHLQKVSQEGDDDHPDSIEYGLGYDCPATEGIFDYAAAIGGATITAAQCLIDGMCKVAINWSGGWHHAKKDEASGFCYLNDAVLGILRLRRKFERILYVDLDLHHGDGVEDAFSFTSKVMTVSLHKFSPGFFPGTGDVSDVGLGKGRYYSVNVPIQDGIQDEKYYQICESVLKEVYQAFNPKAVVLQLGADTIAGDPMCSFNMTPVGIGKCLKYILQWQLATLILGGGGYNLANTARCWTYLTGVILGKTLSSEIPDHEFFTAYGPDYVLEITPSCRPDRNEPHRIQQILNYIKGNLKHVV
- Experiment description: Fluor de Lys HDAC8 inhibition
- Assay type: biochemical
- Assay conditions: Table 5; read-out: HDAC 8
pIC50: −log10 of the molar value.
Label 1.0 when pIC50 is at or above 6; anything below gets 0.0.

Check out these entries, answers already filled in.
Check the entry CCC1OC(=O)C(C)C(=O)C(C)C(OC2OC(C)CC(N(C)Cc3ccc(-c4cn(CCCCCCCC(=O)NO)nn4)cc3)C2O)C(C)(OC)CC(C)C2=NCCN3C(=O)OC1(C)C3C2C (centres unmarked) [Compound 56c] : does pIC50 equal or exceed 6? 0.0

Check the entry CCC1OC(=O)C(C)C(=O)C(C)C(OC2OC(C)CC(N(C)Cc3ccc(-c4cn(CCCCCCCCC(=O)NO)nn4)cc3)C2O)C(C)(OC)CC(C)C2=NCCN3C(=O)OC1(C)C3C2C (centres unmarked) [Compound 56d] : does pIC50 equal or exceed 6? 0.0

Check the entry CCC1OC(=O)C(C)C(=O)C(C)C(OC2OC(C)CC(N(C)Cc3ccc(-c4cn(CCCCCCCCCC(=O)NO)nn4)cc3)C2O)C(C)(OC)CC(C)C2=NCCN3C(=O)OC1(C)C3C2C (centres unmarked) [Compound 56e] : does pIC50 equal or exceed 6? 0.0

Consider the additional compound presented here.
Check the entry CCC1OC(=O)C(C)C(=O)C(C)C(OC2OC(C)CC(N(C)Cc3ccc(-c4cn(CCCCCCC(=O)NO)nn4)cc3)C2O)C(C)(OC)CC(C)C2=NCCN3C(=O)OC1(C)C3C2C (centres unmarked) [Compound 56b] : does pIC50 equal or exceed 6? 1.0

---

Listed below: pIC50 values for each entry.
- System tested: UniProt:Q9BY41
- Experiment description: SAMDI mass spectrometry HDAC inhibition assay
- Format: biochemical
- Assay conditions: SAMDI; read-out: HDAC8 IC50
The quantity pIC50 is defined as the negative base-10 logarithm of the molar concentration.

For record N#Cc1cccc(-c2ccc(Cn3cccc(O)c3=S)cc2)c1 [Compound 149b] the listed pIC50 is 5.77

For record N#Cc1ccc(-c2cn(CCCCCn3cccc(O)c3=S)nn2)cc1 [Compound 167d] the listed pIC50 is 5.83

For record N#Cc1cccc(-c2cn(CCCCCn3cccc(O)c3=S)nn2)c1 [Compound 167e] the listed pIC50 is 5.55

For record CN(C)c1ccc(-c2cn(CCCCCn3cccc(O)c3=S)nn2)cc1 [Compound 167f] the listed pIC50 is 5.83

Next:
For record Oc1cccn(Cc2ccc(-c3ccncc3)cc2)c1=S [Compound 149i] the listed pIC50 is 5.56

For record N#Cc1ccc(-c2cn(CCCCCn3cccc(O)c3=S)nn2)cc1C(F)(F)F [Compound 167g] the listed pIC50 is 5.65

For record Oc1cccn(CCCCCn2cc(-c3ccccc3)nn2)c1=S [Compound 162d] the listed pIC50 is 6.04

For record Oc1cccn(CCCCCCCn2cc(-c3ccccc3)nn2)c1=S [Compound 162f] the listed pIC50 is 6.63

For record Cc1cccc(-c2ccc(Cn3cccc(O)c3=S)cc2)c1 [Compound 149e] the listed pIC50 is 5.60

For record CN(C)c1ccc(-n2cc(Cn3cccc(O)c3=S)nn2)cc1 [Compound 154b] the listed pIC50 is 5.73
